All values here come from patent US20250376519A1.

# study-target: T1, human DLL3 (ACRO, DLL3-H52H4) (human, UniProt Q9NYJ7 27-492)
# T1 construct: Bought
# T1 sequence: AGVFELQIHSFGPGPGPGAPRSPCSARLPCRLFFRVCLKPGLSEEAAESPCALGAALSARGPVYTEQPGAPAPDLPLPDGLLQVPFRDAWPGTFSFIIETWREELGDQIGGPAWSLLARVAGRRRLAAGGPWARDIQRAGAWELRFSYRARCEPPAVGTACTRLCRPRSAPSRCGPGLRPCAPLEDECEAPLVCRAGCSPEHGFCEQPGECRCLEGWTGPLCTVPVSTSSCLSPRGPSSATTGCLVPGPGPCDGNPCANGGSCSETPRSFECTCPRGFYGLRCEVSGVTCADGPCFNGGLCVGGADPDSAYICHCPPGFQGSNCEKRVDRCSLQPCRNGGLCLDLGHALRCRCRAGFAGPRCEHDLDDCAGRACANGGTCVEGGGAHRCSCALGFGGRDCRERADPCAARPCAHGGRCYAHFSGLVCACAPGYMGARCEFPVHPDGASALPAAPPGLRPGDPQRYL
# measurement-description: SPR Biacore 8K, Ab captured on Protein A
property-label: kon (M⁻¹ s⁻¹)
Answers are plain numbers, in M⁻¹ s⁻¹.

The cases that follow already have their kon on record.
[
  {
    "binder": "hu30L4H5 (antibody, human IgG1, kappa, V domains shown) VH: EVRLVQSGAEVKKPGASVKVSCKASGYTFTDYYMNWVRQAPGQSLEWMGIINPYTGDTSYNQKFRGRVTLTVDKSASTAYMELSSLRSEDTAVYYCARYHYGPHLEGYFDVWGQGTTVTVSS VL: DIQMTQSPSSLSASVGDRVTITCKASENVGYVSWYQQKPGKAPKLLIYGASNRYTGVPSRFSGSGSGTDFTLTISSLQPEDFATYYCGQSYSYPLTFGQGTKLEIKR",
    "property-label": "kon",
    "unit-symbol": "M⁻¹ s⁻¹",
    "val": 440000
  },
  {
    "binder": "hu30L5H8 (antibody, human IgG1, kappa, V domains shown) VH: EVRLVQFGAVVKKPGASVKVSCKASGYTFTDYYMNWVRQAPGQSLEWMGIINPYTGDTSYNQKFRGRVTLTVDKSSSTAYMELSSLRSEDTAVYYCARYHYGPHLEGYFDVWGQGTTVTVSS VL: DIQMTQSPSSLSASVGDRVTITCKASENVGYVSWYQQKPGKSPKLLIYGASNRYTGVPDRFSGSGSGTDFTLTISSLQPEDFATYYCGQSYSYPLTFGSGTKLEIKR",
    "property-label": "kon",
    "unit-symbol": "M⁻¹ s⁻¹",
    "val": 400000
  },
  {
    "binder": "hu110L1H2 (antibody, human IgG1, kappa, V domains shown) VH: EVQLVQSGAEVKKPGASVKVSCKTSGYTFTDYYMNWVRQAPGQSLEWMGIINPYNGGTSYTQKFKGRVTITVDKSASTAYMELSSLRSEDTAVYYCARHFYDSSYLTYSTMDYWGQGTTVTVSS VL: DIVMTQSPDSLAVSLGERATINCKASENVGIFVSWYQQKPGQSPKLLIYGASNRYTGVPDRFSGSGSATDFTLTISSLQAEDVAVYYCGQSHSYPLTFGQGTKLEIKR",
    "property-label": "kon",
    "unit-symbol": "M⁻¹ s⁻¹",
    "val": 520000
  },
  {
    "binder": "hu6L2H13 (antibody, human IgG1, kappa, V domains shown) VH: EVQLVQSGSELKKPGASVKVSCKASGYTFTDYYMNWVKQAPGQGLEWMGIINPYSGVTIYNHKFKGRFALSVDKSSNTAYLQISSLKAEDTAVYYCARQDSLLDYAMDYWGQGTTVTVSS VL: DIQMTQSPSSLSASVGDRVTITCHASQGISGNMGWLQQKPGKAPKGLIYHGANLEDGVPSRFSGSGSGADYTLTISSLQPEDFATYYCVQYAQFPYTFGGGTKVEIKR",
    "property-label": "kon",
    "unit-symbol": "M⁻¹ s⁻¹",
    "val": "2.1e+06"
  }
]

Count: 6. Required value per item: kon.
1. hu98L1H2 (antibody, human IgG1, kappa, V domains shown) VH: EVQLVESGGGLVQPGGSLRLSCAASGFTFSDYGIHWVRQAPGKGLEWVAYISSGGYTIYYADTVKGRFTISRDNAKNSLYLQMNSLRAEDTAVYYCARGDYEDIFYTMDYWGQGTTVTVSS VL: DIQMTQSPSSLSASVGDRVTITCRASRDITKFLNWYQQKPGKAPKLLIYYTSRLHSGVPSRFSGSGSGTDFTLTISSLQPEDFATYYCQQGNTLPWTFGGGTKVEIKR
2. hu110L1H3 (antibody, human IgG1, kappa, V domains shown) VH: EVQLVQSGAEVKKPGASVKVSCKTSGYTFTDYYMNWVRQAPGQSLEWMGIINPYQGGTSYTQKFKGRVTITVDKSASTAYMELSSLRSEDTAVYYCARHFYDSSYLTYSTMDYWGQGTTVTVSS VL: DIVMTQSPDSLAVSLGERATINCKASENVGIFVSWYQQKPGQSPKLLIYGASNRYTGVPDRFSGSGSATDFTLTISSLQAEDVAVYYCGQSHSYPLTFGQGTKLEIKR
3. hu6L4H4 (antibody, human IgG1, kappa, V domains shown) VH: EVQLVQSGAEVKKPGASVKVSCKASGYTFTDYYMNWVRQAPGKRLEWMGIINPYSGVTIYNHKFKGRVTLTVDKSANTAYMELSSLRSEDTAVYYCARQDSLLDYAMDYWGQGTTVTVSS VL: DIQMTQSPSSLSASVGDRVTITCHASQGISGNMGWLQQKPGKAPKGLIYHGANLEDGVPSRFSGSGSGADYTLTISSLQPEDFADYYCVQYAQFPYTFGGGTKVEIKR
4. hu30L2H3 (antibody, human IgG1, kappa, V domains shown) VH: EVRLVQSGAEVKKPGASVKVSCKASGYTFTDYYMNWVRQAPGQSLEWMGIINPYQGDTSYNQKFRGRVTLTVDKSASTAYMELSSLRSEDTAVYYCARYHYGPHLEGYFDVWGQGTTVTVSS VL: DIVMTQSPDSLAVSLGERATINCKASENVGYVSWYQQKPGQPPKLLIYGASNRYTGVPDRFSGSGSATDFTLTISSLQAEDVAVYHCGQSYSYPLTFGQGTKLEIKR
5. hu6L1H3 (antibody, human IgG1, kappa, V domains shown) VH: EVQLVQSGAEVKKPGASVKVSCKASGYTFTDYYMNWVRQAPGQRLEWIGIINPYSGVTIYNHKFKGRATLTVDKSANTAYMELSSLRSEDTAVYYCARQDSLLDYAMDYWGQGTTVTVSS VL: DIQMTQSPSSLSASVGDRVTITCHASQGISGNMGWLQQKPGKAPKGLIYHGANLEDGVPSRFSGSGSGTDFTLTISSLQPEDFATYYCVQYAQFPYTFGGGTKVEIKR
6. hu6L3H1 (antibody, human IgG1, kappa, V domains shown) VH: EVQLVQSGAEVKKPGASVKVSCKASGYTFTDYYMNWVRQAPGQRLEWMGIINPYSGVTIYNHKFKGRVTITVDKSASTAYMELSSLRSEDTAVYYCARQDSLLDYAMDYWGQGTTVTVSS VL: DIQMTQSPSSLSASVGDRVTITCHASQGISGNMGWLQQKPGKSFKGLIYHGANLEDGVPSRFSGSGSGADYTLTISSLQPEDFATYYCVQYAQFPYTFGGGTKVEIKR

Result ::
1. 1.56e+06
2. 564000
3. 743000
4. 981000
5. 812000
6. 715000
